measurement_notes: acute toxicity (mouse, oral administration)
condition_info: in vivo
As shown below, each of these molecules has a reported LD50 value.
assay_readout: LD50

mol=CC(=O)OCC1=C(C(=O)O)N2C(=O)[C@@H](NC(=O)[C@H](NC(=O)c3coc4cc(O)c(O)cc4c3=O)c3ccc(O)cc3)[C@H]2SC1 result="> 5000 mg/kg"
mol=CC(=O)OCC1=C(C(=O)O)N2C(=O)[C@@H](NC(=O)[C@H](NC(=O)c3coc4cc(OC(C)=O)c(OC(C)=O)cc4c3=O)c3ccc(O)cc3)[C@H]2SC1 result="> 5000 mg/kg"

====

Reported MIC values for the following compounds.
Tested on: Serratia marcescens ES-75
measurement_notes: MIC by standard agar dilution method of the Japan Society of Chemotherapy
Type: cell-based
condition_info: ES75, Mueller Hinton agar, 18 hours at 37° C., Examples 1, 2, 4 as sodium salts, Example 5 as free acid
assay_readout: MIC (µg/mL)

compound="CC(=O)OCC1=C(C(=O)O)N2C(=O)[C@@H](NC(=O)[C@H](N)c3ccccc3)[C@H]2SC1 [Cephaloglycin, cephaloglycin, reference compound]" assay_readout=MIC result=100
compound=CC(=O)OCC1=C(C(=O)O)N2C(=O)[C@@H](NC(=O)[C@H](NC(=O)c3coc4cc(OC(C)=O)c(OC(C)=O)cc4c3=O)c3ccc(O)cc3)[C@H]2SC1 assay_readout=MIC result=6.25
compound=CC(=O)OCC1=C(C(=O)O)N2C(=O)[C@@H](NC(=O)[C@H](NC(=O)c3coc4c(OC(C)=O)c(OC(C)=O)ccc4c3=O)c3ccc(O)cc3)[C@H]2SC1 assay_readout=MIC result=25
compound=CC(=O)OCC1=C(C(=O)O)N2C(=O)[C@@H](NC(=O)[C@H](NC(=O)c3coc4c(O)c(O)ccc4c3=O)c3ccc(O)cc3)[C@H]2SC1 assay_readout=MIC result=100
compound=CC(=O)OCC1=C(C(=O)O)N2C(=O)[C@@H](NC(=O)[C@H](NC(=O)c3coc4cc(O)c(O)cc4c3=O)c3ccc(O)cc3)[C@H]2SC1 assay_readout=MIC result=3.13

====

For reference, MIC measured on Proteus morganii EP-14:
assay_readout: MIC (µg/mL)

compound=CC(=O)OCC1=C(C(=O)O)N2C(=O)[C@@H](NC(=O)[C@H](NC(=O)c3coc4cc(OC(C)=O)c(OC(C)=O)cc4c3=O)c3ccc(O)cc3)[C@H]2SC1 assay_readout=MIC result=100
compound="CC(=O)OCC1=C(C(=O)O)N2C(=O)[C@@H](NC(=O)[C@H](N)c3ccccc3)[C@H]2SC1 [Cephaloglycin, cephaloglycin, reference compound]" assay_readout=MIC result=25
compound=CC(=O)OCC1=C(C(=O)O)N2C(=O)[C@@H](NC(=O)[C@H](NC(=O)c3coc4c(OC(C)=O)c(OC(C)=O)ccc4c3=O)c3ccc(O)cc3)[C@H]2SC1 assay_readout=MIC result=25
compound=CC(=O)OCC1=C(C(=O)O)N2C(=O)[C@@H](NC(=O)[C@H](NC(=O)c3coc4c(O)c(O)ccc4c3=O)c3ccc(O)cc3)[C@H]2SC1 assay_readout=MIC result=100
compound=CC(=O)OCC1=C(C(=O)O)N2C(=O)[C@@H](NC(=O)[C@H](NC(=O)c3coc4cc(O)c(O)cc4c3=O)c3ccc(O)cc3)[C@H]2SC1 assay_readout=MIC result=50

====

// values below are reported MIC
System: Pseudomonas aeruginosa EP-172
measurement_notes: MIC by standard agar dilution method of the Japan Society of Chemotherapy
Assay type: cell-based
condition_info: EP172, Mueller Hinton agar, 18 hours at 37° C., Examples 1, 2, 4 as sodium salts, Example 5 as free acid
assay_readout: MIC (µg/mL)

molecule=CC(=O)OCC1=C(C(=O)O)N2C(=O)[C@@H](NC(=O)[C@H](NC(=O)c3coc4c(O)c(O)ccc4c3=O)c3ccc(O)cc3)[C@H]2SC1 target_desc="Pseudomonas aeruginosa EP-172" reading_unit=µg/mL result=1.56
molecule=CC(=O)OCC1=C(C(=O)O)N2C(=O)[C@@H](NC(=O)[C@H](NC(=O)c3coc4cc(OC(C)=O)c(OC(C)=O)cc4c3=O)c3ccc(O)cc3)[C@H]2SC1 target_desc="Pseudomonas aeruginosa EP-172" reading_unit=µg/mL result=3.13
molecule="CC(=O)OCC1=C(C(=O)O)N2C(=O)[C@@H](NC(=O)[C@H](N)c3ccccc3)[C@H]2SC1 [Cephaloglycin, cephaloglycin, reference compound]" target_desc="Pseudomonas aeruginosa EP-172" reading_unit=µg/mL result=100
molecule=CC(=O)OCC1=C(C(=O)O)N2C(=O)[C@@H](NC(=O)[C@H](NC(=O)c3coc4c(OC(C)=O)c(OC(C)=O)ccc4c3=O)c3ccc(O)cc3)[C@H]2SC1 target_desc="Pseudomonas aeruginosa EP-172" reading_unit=µg/mL result=3.13
molecule=CC(=O)OCC1=C(C(=O)O)N2C(=O)[C@@H](NC(=O)[C@H](NC(=O)c3coc4cc(O)c(O)cc4c3=O)c3ccc(O)cc3)[C@H]2SC1 target_desc="Pseudomonas aeruginosa EP-172" reading_unit=µg/mL result=3.13
